# method: antimalarial activity against Dd2 strain (AID 2302);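 also: 0% = DMSO untreated growth and 100% = chloroquine plus artemisinin killed control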
# test_parameters: P. falciparum Dd2 in RBCs, LDH growth readout, 72 h; at 2 µM; stronger effect = higher value
Below, each of the compounds is paired with its reported growth inhibition value.
Answer format: numeric, % implied, no suffix.

| smiles_str | meas_value |
| --- | --- |
| Cc1cc(N2CCOCC2)nc(Nc2ccc(NC(=O)c3cccc4ccccc34)cc2)n1 | 11 |

Item under review: Cc1cn(CC(=O)Nc2cccc(-c3cccc(-c4nc5c(C)cccc5[nH]4)c3)c2)c(=O)[nH]c1=O . Reported growth inhibition? 100

Item under review: Cc1ccc(Nc2ccnc3ccc(C(F)(F)F)cc23)cc1O . Reported growth inhibition? 69

Item under review: O=C(Nc1ccc2c(c1)CCC2)c1cccc(N2CCN(c3ccncc3)CC2)c1 . Reported growth inhibition? 22

Item under review: Nc1ncc(-c2ccc(Cl)c(Cl)c2)c(N)n1 . Reported growth inhibition? -2
